Source: ChEMBL document CHEMBL5620351

# Tested on: Hepatitis B virus
# Measurement description: Antiviral activity against lamivudine resistant HBV infected in human HepG2 cells assessed as reduction in of intracellular HBV DNA incubated for 5 days by Southern blotting analysis
# Format: functional, organism-based
# Setup conditions: HepG2, 120 h
Reported property: pEC50
Numbers only, as −log10 of the molar value.

Task: // returns reported pEC50 for input Nc1nc(O)c2ncn([C@H]3CC[C@@H](CO)O3)c2n1
Output: 6.05

---

# Tested on: Hepatitis B virus
# Measurement description: Antiviral activity against HBV D1 infected in human HepG2.2.15 cells assessed as reduction in HBV DNA production by real-time qPCR analysis
# Assay type: functional, organism-based
# Setup conditions: D1, HepG2.2.15
Reported property: IC50 (nM)
One number for each entry, in nM.

Task: // returns reported IC50 for input N#C[C@]1(CO)/C(=C\F)[C@@H](n2cnc3c(=O)[nH]c(N)nc32)C[C@@H]1O
Output: 1800

---

# System: Hepatitis B virus
# Measurement description: Antiviral activity against entecavir-resistant HBV infected in human Huh-7 cells assessed as reduction in HBV DNA production by real-time qPCR analysis
# Assay type: functional, organism-based
Reported property: IC50

Task: // returns reported IC50 for input N#C[C@]1(CO)/C(=C\F)[C@@H](n2cnc3c(=O)[nH]c(N)nc32)C[C@@H]1O
Output: 77.5 µM

---

# Measurement description: Cytotoxicity against human HEK293 cells assessed as reduction in cell viability incubated for 1 hr by MTS assay
# Assay type: toxicity, cell-based
Could you please report measured CC50 at 1 h for the items listed next?

COC(=O)c1c(CCl)cc(O)c(=O)c(O)c1C(=O)OC    > 100 µM
COC(=O)c1c2c(cc(O)c(=O)c1O)COC2=O    > 100 µM

Now look at this one.
Task: // returns reported CC50 at 1 h for input O=C1OCc2cc(O)c(=O)c(O)cc21
Output: > 100 µM

---

# Tested on: Hepatitis B virus
# Measurement description: Antiviral activity against adefovir-resistant HBV infected in human HepG2 cells assessed as reduction in of intracellular HBV DNA incubated for 5 days by Southern blotting analysis
# Assay type: functional, organism-based
# Setup conditions: HepG2, 120 h
Reported property: EC50 (nM)
Numbers only, in nM.

Task: // returns reported EC50 for input Nc1nc(O)c2ncn([C@H]3CC[C@@H](CO)O3)c2n1
Output: 660

---

# Tested on: Hepatitis B virus
# Measurement description: Antiviral activity against HBV infected in human HepG2 2.2.15 cells assessed as reduction in intracellular DNA level
# Assay type: functional, organism-based
Reported property: pEC50
Numbers only, as −log10 of the molar value.

Task: // returns reported pEC50 for input C=CCNc1nc(N)c(/C(N)=N\C#N)s1
Output: 6.13

---

Could you please report measured CC50 at 72 h for the items listed next?
# Measurement description: Cytotoxicity against human primary hepatocytes assessed as cell viability incubated for 72 hrs by LDH release assay
# Type: toxicity, cell-based, Hepatocyte

Worked examples, 2 compounds total:
Cc1c(O)c2cc(Br)cnc2n(O)c1=O    > 100 µM
CC(=O)c1cc(O)c(=O)c(O)cc1C    > 100 µM

Now look at this one.
Task: // returns reported CC50 at 72 h for input C/C(=N\OCc1ccc(F)cc1)c1c(C)cc(=O)n(O)c1O
Output: > 100 µM
